assay_details: folding stability dG unfold (combined trypsin and chymotrypsin); higher = more stable
measurement_label: folding stability dG unfold (kcal/mol)
Give the quantity in kcal/mol, number only.

• SAGGSAGGKKIEMKIIKNEDGTKLIVFKSKEEAEEALKKAGYEVKIVSVNEEKGYVVIEIRKKKSAGGSAGG [r6_510_TrROS_Hall] = 1.9

// returns reported folding stability dG unfold for input SAGTVTIGIWIPADDIEQIKELIRSIAEEHGWEVKVDKIEPNPDGQYFVTVTVENPENGKEIKITIWIPSAG [r5_41_TrROS] 3.25

// returns reported folding stability dG unfold for input SAGGSAGGSAGKMLLIEIEVDGKKYLIEIEVPEGEEITPEELAKLLGIPNVKVKVYELEESAGGSAGGSAGG [r11_219_TrROS_Hall] 3.11

// returns reported folding stability dG unfold for input SAGGSAGGSAGGEIKVEVVPVDGKLRVKVTLEDGEKIEIEVPENTTLDELKKLAEELAKKSAGGSAGGSAGG [r7_265_TrROS_Hall] 1.94

* * *

assay_details: folding stability dG unfold from trypsin proteolysis; higher = more stable
measurement_label: folding stability dG unfold (kcal/mol)
Give the quantity in kcal/mol, number only.

// returns reported folding stability dG unfold for input SKGKKTVTINFMLKVEDPEDLPPGQEVKIPPEFIDFLRDQGFKITEIKIRVVPPPDGDVYVMFSSTIEVDSA [r9_465_TrROS] 1.99

// returns reported folding stability dG unfold for input SAGGSAKVVEIELVEVRRNANGERIVRVRIKLPNGEERTIEMSEEELKELLAKLPPNVEIVAIEEVSAGGSA [r15_339_TrROS_Hall] 1.42

* * *

# Lookup of reported folding stability dG unfold keyed by entry
assay_details: folding stability dG unfold from chymotrypsin proteolysis; higher = more stable
Give the quantity in kcal/mol, number only.

// solved cases for folding stability dG unfold follow
* SAGGSNKNSPEDQKRKQQPPQPKVRTIPGPLSEDQIKNLLDNGQPIIIEGPDGEWWVIKNNEIEPISAGGSA [r2_33_TrROS] | 0.255
* SAGGKTLVITVEAPPEDWDKILELAREALELGGDVVVVAPFPDGLTVTVRAEKPLGKIVEVTVAPDDASAGG [r13_873_TrMRF] | 1.5
* SAGGAPLAERTEPLPDGRTVRRVLEYDPEKRTVRVRTERWAPDGAAEPAEEVLDVPESATSPEFLLASAGGS [r8_461_JUSTAS] | -0.606
* SAGGSAGGSAGDLLKEALEEAKKAGIKTATITVEVDGKLYTLTVKLEPKPPPKEVKVEKKSAGGSAGGSAGG [r17_475_TrROS_Hall] | 0.814

// returns reported folding stability dG unfold for input SAGEKKIKIEIKEIKPHENGYLSIKAKAYLEDGKKVAEVYEPYPPNLSLEELIEKVIERLEKEVKEKGESAG [r5_697_TrMRF] -0.207

// returns reported folding stability dG unfold for input SAGGSAGKIEIPLPELGEVREEPVPDTVRIEVRFPDGRVLEATVLKDDTIEIREKGTGKLVATLPASAGGSA [r15_656_TrMRF] 1.39

// returns reported folding stability dG unfold for input SAGGSLVYRLVLRRGDKVLVVTAPFDSPSDALAAASRLLPGGAELLLEFFDPRTGEPLGTVPFRSVSAGGSA [r2_390_TrMRF] 2.06

// returns reported folding stability dG unfold for input SAGGSAGGSAGGKSKTLRLYNKDTGVAVTVTLNEDGSLSVTVEPLPPPPPVEEKVVVKGSAGGSAGGSAGGS [r10_664_TrROS_Hall] 1.37

// returns reported folding stability dG unfold for input SAGGMLRIRIDGREIEIGMTVEEILAAIEKELGREISPELREALRKAKTPEEIVEALRKLGLKIEIESAGGS [r16_601_TrROS_Hall] 5.17

// returns reported folding stability dG unfold for input SAGGMNTESSFPITLPDGRKVLKNVKTDPETGEITVTVTSIGDPNVKTTEKVDPENPEKVLETVTKPESAGG [r13_400_JUSTAS] 0.206

// returns reported folding stability dG unfold for input SAGGLKIVETKTEPEIGKRYVVIEVYKPETGKPILYVVPLDLEKGENSPEAVAKAILKELKLPPGVKASAGG [r13_362_TrMRF] 1.71

// returns reported folding stability dG unfold for input SAGGSAGGSKPRPIDIMFPNPENGRPVMIRIEYTKDKIKAEWYFGNKPQEKKIDDPEDLLEFISAGGSAGGS [r12_299_TrROS] 1.08

// returns reported folding stability dG unfold for input SAGGSAGGSAGGPEEPEKLTLRVTLTFYNPETQEPVEEVEVEITLTAEDLKEGKITITPSAGGSAGGSAGGS [r10_672_TrROS_Hall] 2.85

// returns reported folding stability dG unfold for input SAGGSAGGSAGGMPLTLTSETVTVERDPTSNNVVTTTTTTYKLPNGTLVTVTTTTTSPTTSAGGSAGGSAGG [r7_267_JUSTAS] 2.21

* * *

assay_details: folding stability dG unfold from trypsin proteolysis; higher = more stable
We use 0.8 kcal/mol as the dividing line for folding stability dG unfold: on or above the line is Met, below is Not met.

Illustrative cases are given below, each with its answer.
* SEALEKAAEAGVKTIYVYVKPGDLEEIKRLKALDVKIVLYATEEIPPEAFEALPGVKVEKVEWISPEELPSA [r9_671_TrMRF] | Not met
* SAGGSAGGSAGMKEGEKPKVKIEIDVLIEVDGKLYRVRAEAEINEDGEITIKVEIEELPDSAGGSAGGSAGG [r11_551_TrROS_Hall] | Met
* SAGGSASMIFADDPAQAEAYVKPLFPNGPPFDIVELSEEEGKELVEKLKKEGKPYKVIVIKDPSKPSAGGSA [r15_567_JUSTAS] | Not met

Please check the record SEGSVRLEFTFTLPDGTRLTVEVTVHYDAATGEFHVSVSVRVEPLPDTSRPWEERPVRLPDGTWVSAADLSA [r9_898_TrMRF] and state if its folding stability dG unfold is at or above 0.8 kcal/mol. Met

Please check the record SAGGPKLYIMIPPELRDNFPDIEIRPVEIPDDNIEIEIKFPGKKVTFPIYIFDPDGKIVEPQTITIEPSAGG [r13_129_TrROS] and state if its folding stability dG unfold is at or above 0.8 kcal/mol. Not met

Please check the record SAKKVEVKKIKVEVTFYDKNGKKVKKKKATITVVKVDGKYYVTIYDENTGKKYVFEFPSLEEAKKALKKSAG [r14_508_TrROS_Hall] and state if its folding stability dG unfold is at or above 0.8 kcal/mol. Met

Please check the record SAGGKPAKPTRLDFPDDDVKTVPANTKIILTRPDGSKLVIELPEEEFTAKPDEWVFETPTSKITFPIASAGG [r13_643_TrMRF] and state if its folding stability dG unfold is at or above 0.8 kcal/mol. Not met

* * *

assay_details: folding stability dG unfold from trypsin proteolysis; higher = more stable
measurement_label: folding stability dG unfold (kcal/mol)
Give the quantity in kcal/mol, number only.

// solved cases for folding stability dG unfold follow
• SAGGEVLVIELSLEELKNLKPNQTVKIKLPDGSELEVRVEEVDGRLYLFVRNKENPEEVELIEEITIESAGG [r13_745_TrROS_Hall] = 2.79
• SAGGMVIVVKTPGGATSITLGNLTITQDPSTGVAVAEATPEQVEALKKDPALKDIESIEILPEEELKSAGGS [r8_493_JUSTAS] = 0.307
• SAGLNIPPEMTVDELVEFLKSLGVKSYKVEKTEDPESYVVTFEFPDFTVVMTFHPDSVTITVVPKDEPLSAG [r5_899_TrMRF] = 3.14

// returns reported folding stability dG unfold for input SAGGSAGGSAGMKKTVTTSTAPDGTLTTTTTVPTPDSTTTVVTTTTDPTTGTTTTTTTANSAGGSAGGSAGG [r11_107_JUSTAS] -2

* * *

# Lookup of reported folding stability dG unfold keyed by entry
assay_details: folding stability dG unfold from trypsin proteolysis; higher = more stable
Give the quantity in kcal/mol, number only.

- SAGGSAGGSATVTVERVGNRLLLSFPDGSYYVAELPGEAEVDLASGKITLPANSRVEPVPLERSAGGSAGGS [r20_158_TrMRF]: 0.0598
- SAGGSTLEEIKAAVIKAAEAGEKEAEIEAPLPDGGKLRILKGGVIEFIPEDGVPKRLKISVSEIKVSAGGSA [r2_97_TrMRF]: -1.2
- SAGGSAGGSAGMKKNEKLITELTFEGPDVYVKITIEKTFDPEGNKIYFKAKIEVFAPGELSAGGSAGGSAGG [r11_237_TrMRF]: 2.83

// returns reported folding stability dG unfold for input SAGGSAGGSKKDPEDNPEQAKPPIPPIRVEIYPPDGQPETFEFHSLEEITEWIQERGYTVKIESAGGSAGGS [r12_244_TrROS] 0.668

Reference for the values: the supplement of paper PMC12764529
